Listed below: protein stability index values for each entry.
- System: Saccharomyces cerevisiae
- PROTOCOL DETAILS: protein stability index of tFT-peptide fusion (C-terminal peptide) (PSI (0-1 scale)); higher = more stable (slower turnover)
- CONDITION PARAMETERS: genetic background: das1 deletion; temperature: 30 C
Response field accepts a number only; no unit should be typed.

IEELLAGIRMSI [BIT61 C-terminal 12 aa] ... 0.719

Attention now turns to another entry.
What value of protein stability index has been recorded for this entry: LDNIERDANDLS [LAM4 C-terminal 12 aa]
0.695

* * *

- System: Saccharomyces cerevisiae
- PROTOCOL DETAILS: protein stability index of tFT-peptide fusion (C-terminal peptide) (PSI (0-1 scale)); higher = more stable (slower turnover)
- CONDITION PARAMETERS: genetic background: wild type; temperature: 30 C
OBSERVABLE: protein stability index
Response field accepts a number only; no unit should be typed.

Look over these answered cases.
IFWLALIYNAIQ [LOH1 C-terminal 12 aa] ... 0.43
SSKAIQGNFDDL [SPB4 C-terminal 12 aa] ... 0.714
LADHLMEKYLSI [TFC4 C-terminal 12 aa] ... 0.658
LFFLVGLQLAIP [YGR022C C-terminal 12 aa] ... 0.327
TNDRLQSILHDL [MEF2 C-terminal 12 aa] ... 0.702
KQAIYTRAAASE [RPS25B C-terminal 12 aa] ... 0.69

Reported protein stability index for Saccharomyces cerevisiae, given IGGLLKPSELDD [CRM1 C-terminal 12 aa] ?
0.696

Reported protein stability index for Saccharomyces cerevisiae, given RQVLDREGLRFG [TRS31 C-terminal 12 aa] ?
0.705

Reported protein stability index for Saccharomyces cerevisiae, given FEFEFFESCYNA [PET18 C-terminal 12 aa] ?
0.744

Reported protein stability index for Saccharomyces cerevisiae, given YVVKGWCDSRFL [GIS3 C-terminal 12 aa] ?
0.701

Reported protein stability index for Saccharomyces cerevisiae, given LASDFIGRGYDD [WTM2 C-terminal 12 aa] ?
0.678

Reported protein stability index for Saccharomyces cerevisiae, given QFSFKAVTFLLI [YOR314W-A C-terminal 12 aa] ?
0.563

Reported protein stability index for Saccharomyces cerevisiae, given LEQYEKTLVHDD [GCV3 C-terminal 12 aa] ?
0.678

Reported protein stability index for Saccharomyces cerevisiae, given AKDYLLDLAGQA [YBR085C-A C-terminal 12 aa] ?
0.659

Measured values drawn from the supplement of paper PMC10724198 for this set.
